Items are presented alongside their recorded tissue uptake at 120 h.
# protocol.description: Ex vivo biodistribution of 177Lu-labeled ligands in PC-3 tumor-bearing mice
# applied.conditions: mouse, lungs, intravenous, 120 h pi, n = 5; read-out: Lungs uptake
Write the answer as a number in %ID/g, unit excluded.

CC(C)C[C@H](NC(=O)[C@H](Cc1cnc[nH]1)N(C)C(=O)CNC(=O)[C@@H](NC(=O)[C@H](C)NC(=O)[C@H](Cc1c[nH]c2ccccc12)NC(=O)[C@H](CCC(N)=O)NC(=O)[C@@H](Cc1ccccc1)NC(=O)CN1CCC(NC(=O)CN2CCN(CC(=O)O)CCN(CC(=O)O)CCN(CC(=O)O)CC2)CC1)C(C)(C)C)C(=O)N1CC(F)(F)C[C@H]1C(N)=O [[^177Lu]Lu-LW02060, metal not drawn] | 0.02

From here, focus on the item given below.
Exercise: Item CC(C)C[C@@H](CN1CC(F)(F)C[C@H]1C(N)=O)NC(=O)[C@H](Cc1c[nH]cn1)NC(=O)CN(C)C(=O)[C@@H](NC(=O)[C@H](C)NC(=O)[C@H](Cc1c[nH]c2ccccc12)NC(=O)[C@H](CCC(N)=O)NC(=O)[C@@H](Cc1ccccc1)NC(=O)CN1CCC(NC(=O)CN2CCN(CC(=O)O)CCN(CC(=O)O)CCN(CC(=O)O)CC2)CC1)C(C)C [[^177Lu]Lu-LW02080, metal not drawn] has what recorded tissue uptake at 120 h?
Solution: 0.05
